Test system: NCI-H522 lung
assay.protocol: NCI tumour cell line growth inhibition, 48 h

[
  {
    "molecule": "COc1ccc(O)c(/C=N\\Nc2ccccc2)c1",
    "comparison.sign": "=",
    "TGI, µM": 49.2
  },
  {
    "molecule": "Cc1nc2ccc(Cl)cc2c2c1CCN2c1ccc(F)cc1",
    "comparison.sign": ">",
    "TGI, µM": 100
  },
  {
    "molecule": "CC(=O)NC(CCCNC(=O)N(C)N=O)C(=O)NCc1ccccc1 (stereo not given)",
    "comparison.sign": ">",
    "TGI, µM": 100
  },
  {
    "molecule": "CC(C)(C)c1cc(C[P+](c2ccccc2)(c2ccccc2)c2ccccc2)cc(C(C)(C)C)c1O",
    "comparison.sign": "=",
    "TGI, µM": 1.91
  },
  {
    "molecule": "O=C(Nc1ccc(Cl)c(C(F)(F)F)c1)Nc1ccc(-c2cccnc2)cc1N1CCC(CO)CC1",
    "comparison.sign": "=",
    "TGI, µM": 3.43
  },
  {
    "molecule": "Cc1nc2ccccc2c(=O)n1/N=C(\\N=Nc1ccccc1)c1ccccc1Cl",
    "comparison.sign": ">",
    "TGI, µM": 74.4
  },
  {
    "molecule": "O=C(CCN1CCCCC1)Nc1ccc2c(c1)C(=O)c1ccc(NC(=O)CCN3CCCCC3)cc1C2=O",
    "comparison.sign": "=",
    "TGI, µM": 32.7
  },
  {
    "molecule": "CCc1cc2c(c(OCC(F)(F)F)c(C(=O)NC3CCN(C(=O)CO)CC3)n2C)c(=O)n1CC(=O)c1ccccc1",
    "comparison.sign": ">",
    "TGI, µM": 100
  },
  {
    "molecule": "COc1cc(OCCN(C)C)c2[nH]c(C(=O)N3CC(CCl)c4c3cc(N)c3ccccc43)cc2c1 (stereo not given)",
    "comparison.sign": "<",
    "TGI, µM": 0.01
  },
  {
    "molecule": "O=C(O)c1cnc2c(ccc3[nH]cccc32)c1=O",
    "comparison.sign": ">",
    "TGI, µM": 100
  }
]

###

Test system: ACHN renal
assay.protocol: NCI tumour cell line growth inhibition, 48 h; in the data active = GI50 below about 0.43 µM; inactive = the rest
Outcome codes: active, inactive

[
  {
    "compound": "Cc1nnn(C)c1-c1cnc2c3ccc(C(C)(C)O)cc3n([C@H](c3ccccc3)C3CCOCC3)c2c1",
    "class": "active"
  },
  {
    "compound": "ClCc1ccccc1Cn1cnc2nc(Cl)nc(Cl)c21",
    "class": "active"
  },
  {
    "compound": "COC(=O)c1c2c(c(C)[n+]([O-])c1C)C(=O)C(NCc1ccccc1)=CC2=O",
    "class": "inactive"
  },
  {
    "compound": "Nc1nc(Sc2ccc([N+](=O)[O-])c3nonc23)c2ncn(C3OC(CO)C(O)C3O)c2n1 (centres undefined)",
    "class": "inactive"
  },
  {
    "compound": "CC(C)(C)c1cc(C[P+](c2ccccc2)(c2ccccc2)c2ccccc2)cc(C(C)(C)C)c1O",
    "class": "inactive"
  },
  {
    "compound": "COc1ccc(C)c2sc(N(Cc3cccnc3)C(=O)c3ccc(C#N)cc3)nc12",
    "class": "inactive"
  },
  {
    "compound": "CCc1cc2c(c(OCC(F)(F)F)c(C(=O)NC3CCN(C(=O)CO)CC3)n2C)c(=O)n1CC(=O)c1ccccc1",
    "class": "inactive"
  },
  {
    "compound": "CCOC(=O)c1c(NN2CCN(CC(F)(F)F)CC2)oc(/C=C2\\C=Nc3ncccc32)c1O",
    "class": "inactive"
  },
  {
    "compound": "Cn1cnc([N+](=O)[O-])c1S(=O)(=O)Oc1ccc(Cl)cc1",
    "class": "inactive"
  }
]

###

System: MALME-3M melanoma
assay.protocol: NCI tumour cell line growth inhibition, 48 h
Where a SMILES comes first, the peptide text is derived from it. [ ]: non-standard residue; d: D form. The star is where a group is joined. ξ: configuration not given here. ξD = NC(CC(=O)O)C(=O)O; Boc = CC(C)(C)OC(=O)*; Aib = CC(C)(N)C(=O)O; OBn = c1ccc(CO*)cc1
Listed here are molecules together with their documented TGI.

[
  {
    "molecule": "Cc1cc(C)n(-c2nc(-n3nc(C)cc3C)nc(-n3nc(C)cc3C)n2)n1",
    "TGI": "> 100 µM"
  },
  {
    "molecule": "NCCCN(CCCCN(CCCN)Cc1ccccc1)Cc1ccccc1",
    "TGI": "> 100 µM"
  },
  {
    "molecule": "O=CCCn1[nH]c(=O)ccc1=O",
    "TGI": "> 100 µM"
  },
  {
    "molecule": "C/C(=C/CC[C@](C)(OC1OC(CO)C(O)C(O)C1O)[C@H]1CC[C@]2(C)[C@@H]1CC[C@@H]1[C@@]3(C)CC[C@H](O)C(C)(C)[C@@H]3C[C@H](O)[C@]12CO)CO (some centres undefined)",
    "TGI": "> 100 µM"
  },
  {
    "molecule": "O=S(Cc1ccccc1)c1ccccc1Cn1cccc1 (centres undefined)",
    "TGI": "> 100 µM"
  },
  {
    "molecule": "COc1cc([C@@H]2c3cc4c(cc3[C@@H](NCc3ccccc3F)C3COC(=O)[C@@H]32)OCO4)cc(OC)c1O (some centres undefined)",
    "TGI": "28.3 µM"
  },
  {
    "molecule": "CCN(CC)CCCNc1ccc([N+](=O)[O-])c2nc3ccccc3c(N)c12",
    "TGI": "> 10 µM"
  },
  {
    "molecule": "COc1cc(C2c3cc4c(cc3OC(NNC(N)=S)C2C)OCO4)cc(OC)c1OC (centres undefined)",
    "TGI": "> 100 µM"
  },
  {
    "molecule": "CC(C)(C)OC(=O)NC(CC(=O)OCc1ccccc1)C(=O)NC(C)(C)C(N)=O (centres undefined) (Boc-[ξD](OBn)-[Aib]-NH2)",
    "TGI": "> 100 µM"
  }
]

###

Tested on: LOX IMVI melanoma
assay.protocol: NCI tumour cell line growth inhibition, 48 h
Where a SMILES comes first, the peptide text is derived from it. [ ]: non-standard residue; d: D form. The star is where a group is joined. ξ: configuration not given here. ξD = NC(CC(=O)O)C(=O)O; Boc = CC(C)(C)OC(=O)*; Aib = CC(C)(N)C(=O)O; OBn = c1ccc(CO*)cc1

[
  {
    "molecule": "COc1cc2c3c(n(CCCN=[N+]=[N-])c(=O)c2cc1OC)-c1ccc(F)cc1C3=O",
    "TGI": "> 100 µM"
  },
  {
    "molecule": "CC(C)(C)OC(=O)NC(CC(=O)OCc1ccccc1)C(=O)NC(C)(C)C(N)=O (stereo not drawn) (Boc-[ξD](OBn)-[Aib]-NH2)",
    "TGI": "> 100 µM"
  },
  {
    "molecule": "COc1cc(OC)c(C(=O)/C=C/c2ccc(C#N)cc2)c(OC)c1",
    "TGI": "5.47 µM"
  }
]

###

System: OVCAR-8 ovarian
assay.protocol: NCI tumour cell line growth inhibition, 48 h

[
  {
    "compound": "O=C(/C=C/c1ccc([N+](=O)[O-])cc1)N1CCN(CCOC(c2ccc(F)cc2)c2ccc(F)cc2)CC1",
    "TGI": "> 100 µM"
  },
  {
    "compound": "Cc1cc(N(CCC#N)CCC#N)ccc1/C=C1N=C(/C=C\\c2ccccc2)N(NC(=O)CC(=O)Nc2ccccc2Cl)C\\1=O",
    "TGI": "> 100 µM"
  },
  {
    "compound": "C=C(CN(C)C)C(=O)c1ccccc1OC",
    "TGI": "50 µM"
  },
  {
    "compound": "Nc1nc(-c2cccnc2)cc(-c2cc(-c3cccnc3)nc(N)n2)n1",
    "TGI": "> 100 µM"
  },
  {
    "compound": "O=C(O)CCC(NC(=O)c1ccc(Oc2nc3ccccc3nc2C(=O)O)cc1)C(=O)O (stereo unspecified)",
    "TGI": "> 100 µM"
  },
  {
    "compound": "NC(=O)c1cn(C2CC(O)C(CO)O2)c2ncnc(N)c12 (stereo unspecified)",
    "TGI": "17.9 µM"
  },
  {
    "compound": "COC(=O)CCc1n(Cc2ccc3ccccc3c2)c2ccccc2[n+]1Cc1ccc2ccccc2c1",
    "TGI": "3.02 µM"
  },
  {
    "compound": "Cc1cc(C)c(/C=C2\\C(=O)Nc3ccccc32)[nH]1",
    "TGI": "> 100 µM"
  },
  {
    "compound": "CC(=O)Nc1ccc(S(=O)(=O)c2nnc(NC(C)=O)s2)cc1",
    "TGI": "> 100 µM"
  },
  {
    "compound": "Clc1cc(Br)ccc1-c1ccc(CNCC2CCNCC2)o1",
    "TGI": "5.15 µM"
  },
  {
    "compound": "CCn1nc(C2CCN(C(=O)CCO)CC2)nc1-c1cnc(N)c(-c2nnc(C(C)(C)C)o2)n1",
    "TGI": "> 100 µM"
  },
  {
    "compound": "O=CCCn1[nH]c(=O)ccc1=O",
    "TGI": "> 100 µM"
  },
  {
    "compound": "COc1cccc(/C=N\\NC(=O)c2ccncc2)c1O",
    "TGI": "> 100 µM"
  },
  {
    "compound": "CCN1/C(=C/C(C)=C/c2sc3ccc4ccccc4c3[n+]2CC)Sc2ccc3ccccc3c21",
    "TGI": "0.83 µM"
  },
  {
    "compound": "O=S(=O)(c1ccccc1)C1CC(c2nc3ccccc3[nH]2)=NO1 (stereo unspecified)",
    "TGI": "> 100 µM"
  },
  {
    "compound": "COC(=O)[C@H](Cc1cn(C)cn1)NC(=O)[C@H](CC(C)C)NC(=O)Nc1cc(C(F)(F)F)cc(C(F)(F)F)c1",
    "TGI": "> 10 µM"
  },
  {
    "compound": "O=C(NCCCCCCCCNC(=O)Nc1cccc2ccccc12)Nc1cccc2ccccc12",
    "TGI": "> 100 µM"
  },
  {
    "compound": "Cc1cc(-c2nc3sc(C)cn3c2/C=N/N=C(N)N)c(C)s1",
    "TGI": "43.6 µM"
  },
  {
    "compound": "Clc1ccc(-c2cnc3c(-c4ccnc(N5CCNCC5)c4)cnn3c2)cc1",
    "TGI": "4.31 µM"
  },
  {
    "compound": "O=S(=O)(CC(Cl)c1ccccc1)c1nc2ccccc2s1 (stereo unspecified)",
    "TGI": "23.8 µM"
  },
  {
    "compound": "CC(C(=O)NCNC(=O)c1ccccc1)C(=O)Nc1ccccc1 (stereo unspecified)",
    "TGI": "> 100 µM"
  }
]
